biological target: Human immunodeficiency virus type 1 integrase (Human immunodeficiency virus 1, UniProt Q7ZJM1); test: Inhibition of HIV1 integrase strand transfer activity using [32P]-labeled linear oligonucleotide substrate
Sequence (Q7ZJM1 whole entry): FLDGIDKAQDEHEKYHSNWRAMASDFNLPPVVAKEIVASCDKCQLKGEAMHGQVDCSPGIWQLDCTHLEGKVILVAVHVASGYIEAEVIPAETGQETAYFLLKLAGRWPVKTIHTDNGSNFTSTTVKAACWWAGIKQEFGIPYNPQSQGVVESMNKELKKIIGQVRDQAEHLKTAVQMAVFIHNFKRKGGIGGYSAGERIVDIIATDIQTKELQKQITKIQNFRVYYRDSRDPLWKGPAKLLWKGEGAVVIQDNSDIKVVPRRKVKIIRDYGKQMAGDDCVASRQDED
IC50 for assorted compounds

Consider the worked cases shown below.
> print(dat)
                                 itemsmiles     measured
1  O=C(NCc1ccc(F)cc1)c1nc(Br)c2cccnc2c1NCc1ccc(F)cc1  > 100000 nM
2  C[C@H](CO)Nc1nc(C(=O)NCc2ccc(F)cc2)c(O)c2ncccc12       200 nM

// IC50 lookup, compound = O=C(NCc1ccc(F)cc1)c1nc(Br)c2cccnc2c1NCCO , result: 69000 nM

// IC50 lookup, compound = O=C(NCc1ccc(F)cc1)c1nc(NCCO)c2cccnc2c1O , result: 300 nM

// IC50 lookup, compound = NCCCNc1c(C(=O)NCc2ccc(F)cc2)nc(Br)c2cccnc12 , result: > 100000 nM

// IC50 lookup, compound = C[C@@H](CO)Nc1nc(C(=O)NCc2ccc(F)cc2)c(O)c2ncccc12 , result: 300 nM

// IC50 lookup, compound = CS(=O)(=O)NCCCCCCN(c1nc(C(=O)NCc2ccc(F)cc2)c(O)c2ncccc12)S(C)(=O)=O , result: 700 nM

// IC50 lookup, compound = O=CNCCCCCCNc1nc(C(=O)NCc2ccc(F)cc2)c(O)c2ncccc12 , result: 200 nM

// IC50 lookup, compound = O=C(NCc1ccc(F)cc1)c1nc(Br)c2cccnc2c1NCc1ccccc1 , result: > 100000 nM

###

experiment: Toxicity against human C8166 cells incubated for 72 hrs by MTT assay; format: cell-based
recordedMetric: CC50 at 72 h (µM)
Express your answer in µM, writing the number without its unit.

Consider the worked cases shown below.
> print(dat)
                                 itemsmiles  measured
1   O=C(NCc1ccc(F)cc1)c1nc(NCCO)c2cccnc2c1O        91
2     O=C(NCc1ccc(F)cc1)c1nc(Br)c2cccnc2c1O        80
3  O=CNCCCCCCNc1nc(C(=O)NCc2ccc(F)cc2)c(O)c2ncccc12       199
4  C[C@H](CO)Nc1nc(C(=O)NCc2ccc(F)cc2)c(O)c2ncccc12        69
5  Cc1ccc(S(=O)(=O)Oc2c(C(=O)NCc3ccc(F)cc3)nc(Br)c3cccnc23)cc1        31
6  CS(=O)(=O)Oc1c(C(=O)NCc2ccc(F)cc2)nc(Br)c2cccnc12        48
7  CS(=O)(=O)NCCCN(c1nc(C(=O)NCc2ccc(F)cc2)c(O)c2ncccc12)S(C)(=O)=O        64
8  O=C(NCc1ccc(F)cc1)c1nc(NCCc2c[nH]c3ccccc23)c2cccnc2c1O        42

// CC50 at 72 h lookup, compound = CS(=O)(=O)NCCCCCCN(c1nc(C(=O)NCc2ccc(F)cc2)c(O)c2ncccc12)S(C)(=O)=O , result: 37

// CC50 at 72 h lookup, compound = C[C@@H](CO)Nc1nc(C(=O)NCc2ccc(F)cc2)c(O)c2ncccc12 , result: 107

###

test: Therapeutic index, ratio of CC50 for human C8166 cells to EC50 for HIV1 3B; format: cell-based; details: read-out: Ratio CC50/EC50
selectivity ratio for assorted compounds

Consider the worked cases shown below.
> print(dat)
                                 itemsmiles  measured
1     O=C(NCc1ccc(F)cc1)c1nc(Br)c2cccnc2c1O       7.2
2   O=C(NCc1ccc(F)cc1)c1nc(NCCO)c2cccnc2c1O      3140
3  O=C(NCc1ccc(F)cc1)c1nc(Br)c2cccnc2c1NCCO       4.8
4  CS(=O)(=O)NCCCN(c1nc(C(=O)NCc2ccc(F)cc2)c(O)c2ncccc12)S(C)(=O)=O     21300
5  O=C(NCc1ccc(F)cc1)c1nc(NCCc2c[nH]c3ccccc23)c2cccnc2c1O       114

// selectivity ratio lookup, compound = O=CNCCCCCCNc1nc(C(=O)NCc2ccc(F)cc2)c(O)c2ncccc12 , result: 7370

// selectivity ratio lookup, compound = O=C(NCc1ccc(F)cc1)c1nc(N2CCCCS2(=O)=O)c2cccnc2c1O , result: 26400

// selectivity ratio lookup, compound = CS(=O)(=O)NCCCCCCN(c1nc(C(=O)NCc2ccc(F)cc2)c(O)c2ncccc12)S(C)(=O)=O , result: 18500

// selectivity ratio lookup, compound = Cc1ccc(S(=O)(=O)Oc2c(C(=O)NCc3ccc(F)cc3)nc(Br)c3cccnc23)cc1 , result: 6.2

// selectivity ratio lookup, compound = C[C@@H](CO)Nc1nc(C(=O)NCc2ccc(F)cc2)c(O)c2ncccc12 , result: 4650

###

test system: MDA-MB-435; experiment: Cytotoxicity against human MDA-MB-435 cells incubated for 72 hrs by MTT assay; assay type: functional, cell-based; conditions: MDA-MB-435, 72 h
recordedMetric: IC50

// IC50 lookup, compound = O=C(NCc1ccc(F)cc1)c1nc(Br)c2cccnc2c1NCc1ccccc1 , result: > 20 µM

// IC50 lookup, compound = N[C@H]1CC[C@H](Nc2c(C(=O)NC3CCCCC3)nc(Br)c3cccnc23)CC1 , result: > 10 µM

// IC50 lookup, compound = Cc1ccc(S(=O)(=O)Oc2c(C(=O)NCc3ccc(F)cc3)nc(Br)c3cccnc23)cc1 , result: > 20 µM

// IC50 lookup, compound = C[C@@H](CO)Nc1nc(C(=O)NCc2ccc(F)cc2)c(O)c2ncccc12 , result: > 20 µM

// IC50 lookup, compound = O=C(NCc1ccc(F)cc1)c1nc(Br)c2cccnc2c1NCc1ccc(F)cc1 , result: > 20 µM

// IC50 lookup, compound = C[C@H](CO)Nc1nc(C(=O)NCc2ccc(F)cc2)c(O)c2ncccc12 , result: > 20 µM

// IC50 lookup, compound = C[C@@H](Nc1c(C(=O)NCc2ccc(F)cc2)nc(Br)c2cccnc12)c1ccccc1 , result: > 20 µM

// IC50 lookup, compound = O=C(NCCCNc1c(C(=O)NCc2ccc(F)cc2)nc(Br)c2cccnc12)c1ccccc1 , result: > 20 µM

// IC50 lookup, compound = C[C@H](Nc1c(C(=O)NCc2ccc(F)cc2)nc(Br)c2cccnc12)c1ccccc1 , result: > 20 µM

// IC50 lookup, compound = O=C(NCc1ccc(F)cc1)c1nc(Br)c2cccnc2c1NCCO , result: > 20 µM

// IC50 lookup, compound = O=C(NCc1ccc(F)cc1)c1nc(NCCO)c2cccnc2c1O , result: > 20 µM

// IC50 lookup, compound = CNc1c(C(=O)NCc2ccc(F)cc2)nc(Br)c2cccnc12 , result: > 20 µM

// IC50 lookup, compound = N[C@H]1CC[C@H](Nc2c(C(=O)NCc3ccco3)nc(Br)c3cccnc23)CC1 , result: > 10 µM

// IC50 lookup, compound = O=C(NCc1ccc(F)cc1)c1nc(Br)c2cccnc2c1N1CCNCC1 , result: 8 µM

// IC50 lookup, compound = N[C@H]1CC[C@H](Nc2c(C(=O)NCCc3ccccc3)nc(Br)c3cccnc23)CC1 , result: 8 µM

// IC50 lookup, compound = CN(C)c1ccc(CNC(=O)c2nc(Br)c3cccnc3c2N[C@H]2CC[C@H](N)CC2)cc1 , result: 4 µM
